B1: MMP1 (parent)
chain: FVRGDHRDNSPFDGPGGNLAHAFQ

Variants of: B1
Assay: protein stability index of a GFP-peptide fusion (GPS, HEK-293T) (PSI 1-6); higher = more stable;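 note: lentivirally expressed fusions sorted by FACS into six bins by GFP to DsRed ratio, PSI derived from sequencing read proportions per bin multiplied by bin number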
Details: c terminus: a fixed tail appended
Each entry below carries its reported protein stability index.
measured.metric: protein stability index

mutant.designation	numeric.value
F12G	2.24
S10P	2.84
D5A	2.15
H21D	2.15
N18L	3.23
H6L	2.64
H6N	1.33
F1P	3.59
G17I	2.43
L19Q	1.51
G17M	3.38
F23K	2.45
S10N	1.38
P15E	2.37
V2F	2.61
R3W	1.86
A22E	1.38
A20S	1.88
F12M	2.08
G17C	2.62
R7V	2.04
G14A	2.12
A22S	1.91
A20N	1.76
R3T	2.13
G16Y	2.73
H21F	2.31
P11I	1.7
D13L	1.47
N18V	2.14
D8F	4.46
D5K	3.58
G4Q	2.42
S10D	1.35
A20M	1.88
F12R	1.84
G17K	1.92
G17Y	3.31
F12S	1.95
G14E	2.06
F1M	3.32
A22H	2
Q24A	1.88
N9H	4.14
N18S	2.18
A22Y	2.34
G14V	3.45
H6P	1.48
G16T	2.32
V2K	3.1
A20Y	1.29
D13T	2.27
G16L	2.81
F23N	1.73
A20K	2.56
G4C	2.67
R7P	2.8
D13S	2.56
R3D	1.73
G17R	1.79
G17T	2.05
S10V	1.42
S10Q	1.6

The origin of these recorded values is the supplement of paper PMC10567573.
